Recorded measurements of IC50, one per entry
- Test system: A549 cells
- Assay Explanation: Cytotoxic activity on human tumour line A549, neutral red, 96 hours
- Format: cell-based
- Study Conditions: Homo sapiens, A549, A549; read-out: Cytotox. A549 IC50
// return numeric value only (unit: µM, not printed)

The examples below pair each entry with its known result.
Ask: Which IC50 value belongs to Cc1cc(N(C)C)c2cc(Nc3nc(Nc4ccc5nc(C)cc(N(C)C)c5c4)nc(N4CCN(C5CCCC5)CC4)n3)ccc2n1 [Example 143] ?
Reply: 0.52

Ask: Consider next the compound Cc1cc(C)nc(Sc2nc(Nc3ccc4nc(C)cc(N)c4c3)nc(Nc3ccc4nc(C)cc(N)c4c3)n2)n1 [Example 127] in the same way.
Reply: 15.9

Ask: Consider next the compound Cc1cc(N)c2cc(Nc3nc(Nc4ccc5nc(C)cc(N)c5c4)nc(N4CCN(C5CCCC5)CC4)n3)ccc2n1 [Example 43] in the same way.
Reply: 10

Please find the next compound below.
Ask: Which IC50 value belongs to COc1ccc(CNc2nc(Nc3ccc4nc(C)cc(N)c4c3)nc(Nc3ccc4nc(C)cc(N)c4c3)n2)cc1 [Example 83] ?
Reply: 14

###

Recorded measurements of pIC50, one per entry
- Tested on: human telomerease (HL60 cell extract)
- Assay Explanation: Antitelomerease activity: extension of oligonucleotide TS followed by PCR amplification, with HL60 extract
- Format: biochemical
- Study Conditions: read-out: TRAP IC50
Note on units: pIC50 is unitless, being -log10 of a concentration expressed in mol/L.

The examples below pair each entry with its known result.
Ask: Which pIC50 value belongs to CCN(CC)CCN(CCN(CC)CC)c1nc(Nc2ccc3nc(C)cc(N)c3c2)nc(Nc2ccc3nc(C)cc(N)c3c2)n1 [Example 40] ?
Reply: 6.64

Ask: Consider next the molecule Cc1cc(N)c2cc(Nc3nc(Nc4ccc5nc(C)cc(N)c5c4)nc(Oc4ccccc4Cl)n3)ccc2n1 [Example 103] in the same way.
Reply: 6.55

Ask: Consider next the molecule Cc1cc(N)c2cc(Nc3nc(NCc4ccc(N(C)C)cc4)nc(Nc4ccc5nc(C)cc(N)c5c4)n3)ccc2n1 [Example 85] in the same way.
Reply: 5.41

Please find the next molecule below.
Ask: Which pIC50 value belongs to Cc1cc(N)c2cc(Nc3nc(Nc4ccc5nc(C)cc(N)c5c4)nc(N4CCN(CCN(C)C)CC4)n3)ccc2n1 [Example 88] ?
Reply: 6.96

###

- Tested on: human telomerease (HL60 cell extract)
- Assay Explanation: Antitelomerease activity: extension of oligonucleotide TS followed by PCR amplification, with HL60 extract
- Type: biochemical
- Study Conditions: read-out: TRAP IC50
- Method: The antitelomerease biological activity is determined by the following experimental protocol: The leukaemia line HL60 is obtained from ATCC (American Type Culture Collection, Rockville, USA). […] The samples are then analysed by electrophoresis on 12% acrylamide gel in a 1×TBE buffer for 1 hour at a voltage of 200 volts, with the aid of a Novex electrophoresis system. […] The analysis and the quantification of the reaction products are carried out with the aid of an InstantImager apparatus (Pacard). […]
Measurement Type: IC50 (nM)
// return numeric value only (unit: nM, not printed)

The examples below pair each entry with its known result.
Ask: Which IC50 value belongs to Cc1cc(N(C)C)c2cc(Nc3nc(Nc4ccc5nc(C)cc(N(C)C)c5c4)nc(N4CCN(c5ccncc5)CC4)n3)ccc2n1 ?
Reply: 400

Ask: Consider next the compound Cc1cc(N(C)C)c2cc(Nc3nc(Nc4ccc5nc(C)cc(N(C)C)c5c4)nc(N4CCN(CCCN(C)C)CC4)n3)ccc2n1 in the same way.
Reply: 120

Ask: Consider next the compound COc1ccc(COc2nc(Nc3ccc4nc(C)cc(N)c4c3)nc(Nc3ccc4nc(C)cc(N)c4c3)n2)cc1 in the same way.
Reply: 530

Ask: Consider next the compound Cc1cc(N)c2cc(Nc3nc(Nc4ccc5nc(C)cc(N)c5c4)nc(Oc4ccncc4)n3)ccc2n1 in the same way.
Reply: 300

Ask: Consider next the compound Cc1cc(N(C)C)c2cc(Nc3nc(Nc4ccc5nc(C)cc(N(C)C)c5c4)nc(N4CCN(CCO)CC4)n3)ccc2n1 in the same way.
Reply: 1200

Ask: Consider next the compound COCC1CCCN1c1nc(Nc2ccc3nc(C)cc(N)c3c2)nc(Nc2ccc3nc(C)cc(N)c3c2)n1 (stereo not drawn) in the same way.
Reply: 430

Continuing:
Ask: Which IC50 value belongs to Cc1cc(N)c2cc(Nc3nc(Nc4ccccc4Cl)nc(N4CCN(C)CC4)n3)ccc2n1 ?
Reply: 3200

Ask: Consider next the compound Cc1cc(N)c2cc(Nc3nc(Nc4ccc5nc(C)cc(N)c5c4)nc(N4CCC(O)C4)n3)ccc2n1 (stereo not drawn) in the same way.
Reply: 410

Ask: Consider next the compound Cc1cc(N(C)C)c2cc(Nc3nc(NCCc4ccccc4)nc(Nc4ccc5nc(C)cc(N(C)C)c5c4)n3)ccc2n1 in the same way.
Reply: 1100

Ask: Consider next the compound Cc1cc(N)c2cc(Nc3nc(NCC[N+](C)(C)C)nc(Nc4ccc5nc(C)cc(N)c5c4)n3)ccc2n1 in the same way.
Reply: 170

Ask: Consider next the compound CC(=O)NCCNc1nc(Nc2ccc3nc(C)cc(N(C)C)c3c2)nc(Nc2ccc3nc(C)cc(N(C)C)c3c2)n1 in the same way.
Reply: 2500

Ask: Consider next the compound Cc1cc(N)c2cc(Nc3nc(Nc4ccc5nc(C)cc(N)c5c4)nc(NC(CO)CO)n3)ccc2n1 in the same way.
Reply: 620

Ask: Consider next the compound Cc1cc(N)c2cc(Nc3nc(Nc4ccc5nc(C)cc(N)c5c4)nc(OCc4ccccc4)n3)ccc2n1 in the same way.
Reply: 400

Ask: Consider next the compound Cc1cc(N)c2cc(Nc3nc(NCCCN(C)C)nc(Nc4ccc5nc(C)cc(N)c5c4)n3)ccc2n1 in the same way.
Reply: 300

Ask: Consider next the compound Cc1cc(N(C)C)c2cc(Nc3nc(NCC(O)CO)nc(Nc4ccc5nc(C)cc(N(C)C)c5c4)n3)ccc2n1 (stereo not drawn) in the same way.
Reply: 3000

Ask: Consider next the compound Cc1cc(N)c2cc(Nc3nc(NCCN4CCCCC4)nc(Nc4ccc5nc(C)cc(N)c5c4)n3)ccc2n1 in the same way.
Reply: 370

Ask: Consider next the compound Cc1cc(N(C)C)c2cc(Nc3nc(Nc4ccc5nc(C)cc(N(C)C)c5c4)nc(N4CCN(CCOCCO)CC4)n3)ccc2n1 in the same way.
Reply: 900

Ask: Consider next the compound Cc1cc(N(C)C)c2cc(Nc3nc(Nc4ccncc4)nc(Nc4ccc5nc(C)cc(N(C)C)c5c4)n3)ccc2n1 in the same way.
Reply: 1200

Ask: Consider next the compound Cc1cc(N)c2cc(Nc3nc(Nc4ccc5nc(C)cc(N)c5c4)nc(N4CCN(CCN5CCCC5)CC4)n3)ccc2n1 in the same way.
Reply: 50

Ask: Consider next the compound Cc1cc(N)c2cc(Nc3nc(Nc4ccc5nc(C)cc(N)c5c4)nc(Nc4cccc5ccc(C)nc45)n3)ccc2n1 in the same way.
Reply: 350

Ask: Consider next the compound COC(=O)CSc1nc(Nc2ccc3nc(C)cc(N)c3c2)nc(Nc2ccc3nc(C)cc(N)c3c2)n1 in the same way.
Reply: 360

Every entry's value here was drawn from patent US6887873B2.
